target: Stromelysin-1 (Homo sapiens); test: Inhibition of human recombinant MMP3 after 30 mins by fluorimetry
Sequence (P08254 whole entry): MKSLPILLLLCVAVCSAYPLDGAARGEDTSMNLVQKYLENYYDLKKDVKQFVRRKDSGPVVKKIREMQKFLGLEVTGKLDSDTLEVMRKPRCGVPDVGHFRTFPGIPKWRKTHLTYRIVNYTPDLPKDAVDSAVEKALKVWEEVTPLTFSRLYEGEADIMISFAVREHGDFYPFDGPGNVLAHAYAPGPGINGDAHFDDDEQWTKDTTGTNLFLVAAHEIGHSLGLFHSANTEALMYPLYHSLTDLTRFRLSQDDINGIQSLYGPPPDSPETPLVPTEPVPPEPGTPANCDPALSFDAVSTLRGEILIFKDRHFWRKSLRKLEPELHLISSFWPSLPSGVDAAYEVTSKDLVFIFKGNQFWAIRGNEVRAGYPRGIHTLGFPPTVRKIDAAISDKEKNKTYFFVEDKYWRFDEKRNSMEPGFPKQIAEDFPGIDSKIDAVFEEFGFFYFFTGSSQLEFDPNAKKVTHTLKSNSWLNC
pIC50: −log10 of the molar value.

# compound, tgt, pIC50
data = [
    ("CCOC(=O)c1cc2cc(-c3cc(C(=O)NCc4ccc(C(=O)O)cc4)nn3C)ccc2[nH]1 [BI 4394]", "Stromelysin-1 (Homo sapiens)", "< 4.66"),
]

====

target: Collagenase 3 (Homo sapiens, UniProt P45452); assay: Inhibition of […]-activated MMP13-mediated degradation of FITC-labeled type2 collagen after 1.5 hrs by fluorimetry
pIC50: −log10 of the molar value.

# compound.string, tgt, pIC50
rows = [
    ("CCOC(=O)c1cc2cc(-c3cc(C(=O)NCc4ccc(C(=O)O)cc4)nn3C)ccc2[nH]1", "Collagenase 3 (Homo sapiens, UniProt P45452)", 7.96),
]

====

target: Interstitial collagenase (Homo sapiens, UniProt P03956); assay: Inhibition of human recombinant MMP1 after 30 mins by fluorimetry
Sequence (P03956 whole entry): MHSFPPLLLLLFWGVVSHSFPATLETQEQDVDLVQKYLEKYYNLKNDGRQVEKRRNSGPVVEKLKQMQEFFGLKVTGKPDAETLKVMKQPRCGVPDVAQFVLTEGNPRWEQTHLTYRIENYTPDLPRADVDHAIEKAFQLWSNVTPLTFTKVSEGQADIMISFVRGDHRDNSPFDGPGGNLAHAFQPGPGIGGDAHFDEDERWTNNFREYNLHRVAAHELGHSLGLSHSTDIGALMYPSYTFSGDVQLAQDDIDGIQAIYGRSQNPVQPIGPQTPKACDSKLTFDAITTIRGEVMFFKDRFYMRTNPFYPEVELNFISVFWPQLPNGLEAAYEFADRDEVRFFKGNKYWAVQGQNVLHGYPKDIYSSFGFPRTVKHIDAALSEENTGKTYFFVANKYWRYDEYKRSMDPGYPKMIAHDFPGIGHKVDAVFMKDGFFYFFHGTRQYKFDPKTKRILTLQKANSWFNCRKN

# molecule, IC50
rows = [
    ("CCOC(=O)c1cc2cc(-c3cc(C(=O)NCc4ccc(C(=O)O)cc4)nn3C)ccc2[nH]1 [BI 4394]", "> 22 µM"),
]

====

molecular target: Collagenase 3 (Homo sapiens, UniProt P45452); experiment: Inhibition of MMP13 after 30 mins by fluorimetry in the presence of 1.25% human serum albumin
pIC50: −log10 of the molar value.
measured.quantity: pIC50

# molecule, measured.quantity, value.reported
measured = [
    ("CCOC(=O)c1cc2cc(-c3cc(C(=O)NCc4ccncc4)nn3C)ccc2[nH]1", "pIC50", 6.44),
    ("Cn1nc(C(=O)NCc2ccc(C(=O)O)cc2)cc1-c1ccc2[nH]c(C(=O)O)cc2c1", "pIC50", 4.25),
    ("CCOC(=O)c1cc2cc(-c3cc(C(=O)NCc4ccc(CC(=O)O)cc4)nn3C)ccc2[nH]1", "pIC50", 7.85),
    ("CCOC(=O)c1cc2cc(-c3cc(C(=O)NCc4ccc(C(=O)O)cc4)nn3C)ccc2[nH]1 [BI 4394]", "pIC50", 8.40),
    ("CCOC(=O)c1cc2cc(-c3cc(C(=O)NCc4ccc(=O)[nH]c4)nn3C)ccc2[nH]1", "pIC50", 6.55),
    ("CCOCc1cc2cc(-c3cc(C(=O)NCc4ccc(C(=O)O)cc4)nn3C)ccc2[nH]1", "pIC50", 5.72),
    ("CCOC(=O)c1cc2cc(-c3cc(C(=O)NCc4ccncc4)ncc3C)ccc2[nH]1", "pIC50", 6.19),
]

====

system: Rattus norvegicus; assay: Volume of distribution at steady state in Sprague-Dawley rat at 1 mg/kg, iv and 10 mg/kg, po; format: ADME, organism-based; conditions: in vivo
measured.quantity: Vdss (L/kg)

# compound.string, tgt, quantity.unit, value.reported
rows = [
    ("CCOC(=O)c1cc2cc(-c3cc(C(=O)NCc4ccc(C(=O)O)cc4)nn3C)ccc2[nH]1", "Rattus norvegicus", "L/kg", 0.26),
]

====

target: Collagenase 3 (Homo sapiens); assay: Inhibition of human MMP13-mediated degradation of bovine nasal cartilage after 2 hrs by ELISA in the presence of 10% human serum
pIC50: −log10 of the molar value.
measured.quantity: pIC50

# compound, value.reported
measured = [
    ("CCOC(=O)c1cc2cc(-c3cc(C(=O)NCc4ccc(C(=O)O)cc4)nn3C)ccc2[nH]1 [BI 4394]", 7.51),
]

====

biological target: Cytochrome P450 3A4 (Homo sapiens, UniProt P08684); experiment: Inhibition of human recombinant CYP3A4 using 7-benzyloxy-4-trifluoromethylcoumarin as substrate after 30 mins by fluorimetry
Sequence (P08684 whole entry): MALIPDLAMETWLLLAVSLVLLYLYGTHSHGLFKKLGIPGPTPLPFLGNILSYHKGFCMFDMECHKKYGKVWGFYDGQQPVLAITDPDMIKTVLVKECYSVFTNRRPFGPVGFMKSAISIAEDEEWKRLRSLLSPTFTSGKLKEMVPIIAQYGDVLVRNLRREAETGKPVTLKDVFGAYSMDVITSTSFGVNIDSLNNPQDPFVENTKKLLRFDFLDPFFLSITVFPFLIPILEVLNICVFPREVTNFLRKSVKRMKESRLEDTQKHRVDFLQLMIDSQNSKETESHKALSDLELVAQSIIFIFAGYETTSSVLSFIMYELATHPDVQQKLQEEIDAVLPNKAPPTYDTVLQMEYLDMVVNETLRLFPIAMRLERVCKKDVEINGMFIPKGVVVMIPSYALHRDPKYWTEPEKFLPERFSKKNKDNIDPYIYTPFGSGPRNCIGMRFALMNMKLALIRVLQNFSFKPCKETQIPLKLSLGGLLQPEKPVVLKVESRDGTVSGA

# compound.string, IC50
rows = [
    ("CCOC(=O)c1cc2cc(-c3cc(C(=O)NCc4ccc(C(=O)O)cc4)nn3C)ccc2[nH]1", "> 30 µM"),
]

====

target: Matrix metalloproteinase-14 (Homo sapiens); assay: Inhibition of human recombinant MMP14 after 60 mins by fluorimetry
pIC50: −log10 of the molar value.
We begin with a simple list: items and their reported pIC50.

# compound.string, pIC50
rows = [
    ("CC(=O)Nc1ccc2[nH]c(C3=NCCO3)cc2c1", "< 3.30"),
    ("CCOC(=O)c1cc2cc(-c3ccccc3)ccc2[nH]1", "< 3.30"),
    ("CCOC(=O)c1cc2cc(-c3cccnc3)ccc2[nH]1", 4.29),
    ("CCNC(=O)c1cc2cc(C(N)=O)ccc2[nH]1", "< 3.30"),
    ("CCOC(=O)c1cc2cc(-c3cc(C(=O)NCc4ccncc4)ncc3C)ccc2[nH]1", "< 4.66"),
    ("CCOC(=O)c1cc2cc(-c3ccccn3)ccc2[nH]1", "< 3.30"),
    ("CCOC(=O)c1cc2cc(-c3ccncc3C)ccc2[nH]1", "< 3.30"),
    ("CCOC(=O)c1cc2cc(NS(C)(=O)=O)ccc2[nH]1", "< 3.30"),
    ("CCOC(=O)c1cc2cc(-c3cc(C(=O)NCc4ccc(CC(=O)O)cc4)nn3C)ccc2[nH]1", "< 4.66"),
    ("CCOC(=O)c1cc2cc(C(N)=O)ccc2[nH]1", "< 3.30"),
    ("CCOC(=O)c1cc2cc(-c3cc(C(=O)NCc4ccncc4)nn3C)ccc2[nH]1", "< 3.30"),
]

====

We begin with a simple list: items and their reported IC50.
molecular target: 72 kDa type IV collagenase (Homo sapiens, UniProt P08253); test: Inhibition of human recombinant MMP2 after 30 mins by fluorimetry
Sequence (P08253 whole entry): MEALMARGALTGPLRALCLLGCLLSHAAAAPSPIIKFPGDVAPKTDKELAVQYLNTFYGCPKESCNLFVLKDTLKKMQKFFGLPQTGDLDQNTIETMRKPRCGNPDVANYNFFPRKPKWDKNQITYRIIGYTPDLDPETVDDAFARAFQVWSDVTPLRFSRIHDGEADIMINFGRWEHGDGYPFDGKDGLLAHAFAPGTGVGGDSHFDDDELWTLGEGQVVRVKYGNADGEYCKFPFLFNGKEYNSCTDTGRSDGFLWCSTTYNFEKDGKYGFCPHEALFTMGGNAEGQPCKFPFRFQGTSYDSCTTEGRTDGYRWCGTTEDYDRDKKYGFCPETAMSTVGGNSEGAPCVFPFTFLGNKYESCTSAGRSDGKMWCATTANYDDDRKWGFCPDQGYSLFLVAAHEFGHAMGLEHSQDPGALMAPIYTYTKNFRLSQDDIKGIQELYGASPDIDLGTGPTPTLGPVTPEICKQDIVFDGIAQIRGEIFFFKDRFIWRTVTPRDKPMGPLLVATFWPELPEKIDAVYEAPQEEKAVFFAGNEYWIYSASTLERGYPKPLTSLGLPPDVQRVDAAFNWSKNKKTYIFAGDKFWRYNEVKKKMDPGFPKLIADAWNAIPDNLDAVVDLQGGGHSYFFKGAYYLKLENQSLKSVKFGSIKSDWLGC

# compound.string, IC50
rows = [
    ("CCOC(=O)c1cc2cc(C(N)=O)ccc2[nH]1", "60 µM"),
    ("CCOC(=O)c1cc2cc(-c3cc(C(=O)NCc4ccncc4)ncc3C)ccc2[nH]1", "> 20 µM"),
    ("CCOC(=O)c1cc2cc(-c3cc(C(=O)NCc4ccc(=O)[nH]c4)nn3C)ccc2[nH]1", "> 24 µM"),
    ("CC(=O)Nc1ccc2[nH]c(C3=NCCO3)cc2c1", "> 500 µM"),
    ("CCNC(=O)c1cc2cc(C(N)=O)ccc2[nH]1", "> 500 µM"),
    ("CCOC(=O)c1cc2cc(NC(C)=O)ccc2[nH]1", "> 500 µM"),
    ("CCOC(=O)c1cc2cc(-c3ccncc3)ccc2[nH]1", "310 µM"),
    ("CCOC(=O)c1cc2cc(-c3ccncc3C)ccc2[nH]1", "> 500 µM"),
    ("CCOC(=O)c1cc2cc(-c3cc(C(=O)NCc4ccc(CC(=O)O)cc4)nn3C)ccc2[nH]1", "> 22 µM"),
    ("CCOC(=O)c1cc2cc(-c3cc(C(=O)NCc4ccncc4)nn3C)ccc2[nH]1", "> 500 µM"),
    ("CCOC(=O)c1cc2cc(-c3cccnc3)ccc2[nH]1", "30 µM"),
    ("CCOC(=O)c1cc2cc(-c3cncn3C)ccc2[nH]1", "24 µM"),
    ("CCOC(=O)c1cc2cc(NS(C)(=O)=O)ccc2[nH]1", "210 µM"),
    ("CCOC(=O)c1cc2cc(-c3ccccn3)ccc2[nH]1", "> 500 µM"),
    ("CCOC(=O)c1cc2cc(-c3ccccc3)ccc2[nH]1", "> 500 µM"),
    ("CCOC(=O)c1cc2cc(-c3cc(C(=O)OC)nn3C)ccc2[nH]1", "83 µM"),
    ("CCCC(=O)c1cc2cc(C(N)=O)ccc2[nH]1", "> 500 µM"),
]

====

target: UniProt:P39900; experiment: Inhibition of human recombinant MMP12 after 30 mins by fluorimetry
Sequence (P39900 whole entry): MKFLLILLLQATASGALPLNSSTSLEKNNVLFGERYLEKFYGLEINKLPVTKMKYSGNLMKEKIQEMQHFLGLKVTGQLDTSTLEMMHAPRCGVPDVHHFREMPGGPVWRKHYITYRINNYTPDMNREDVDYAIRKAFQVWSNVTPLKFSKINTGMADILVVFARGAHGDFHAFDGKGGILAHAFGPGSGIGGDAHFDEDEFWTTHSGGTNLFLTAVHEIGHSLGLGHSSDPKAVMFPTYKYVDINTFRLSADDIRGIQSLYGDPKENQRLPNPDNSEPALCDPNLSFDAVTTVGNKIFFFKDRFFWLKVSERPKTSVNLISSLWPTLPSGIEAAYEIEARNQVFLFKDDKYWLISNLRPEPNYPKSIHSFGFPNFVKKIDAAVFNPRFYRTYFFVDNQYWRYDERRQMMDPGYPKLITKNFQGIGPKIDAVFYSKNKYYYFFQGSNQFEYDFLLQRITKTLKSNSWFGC
pIC50: −log10 of the molar value.

# compound.string, tgt, pIC50
measured = [
    ("CCOC(=O)c1cc2cc(-c3cc(C(=O)NCc4ccc(C(=O)O)cc4)nn3C)ccc2[nH]1", "UniProt:P39900", "< 4.66"),
]

====

target: Stromelysin-2 (Homo sapiens, UniProt P09238); test: Inhibition of human recombinant MMP10 after 30 mins by fluorimetry
Sequence (P09238 whole entry): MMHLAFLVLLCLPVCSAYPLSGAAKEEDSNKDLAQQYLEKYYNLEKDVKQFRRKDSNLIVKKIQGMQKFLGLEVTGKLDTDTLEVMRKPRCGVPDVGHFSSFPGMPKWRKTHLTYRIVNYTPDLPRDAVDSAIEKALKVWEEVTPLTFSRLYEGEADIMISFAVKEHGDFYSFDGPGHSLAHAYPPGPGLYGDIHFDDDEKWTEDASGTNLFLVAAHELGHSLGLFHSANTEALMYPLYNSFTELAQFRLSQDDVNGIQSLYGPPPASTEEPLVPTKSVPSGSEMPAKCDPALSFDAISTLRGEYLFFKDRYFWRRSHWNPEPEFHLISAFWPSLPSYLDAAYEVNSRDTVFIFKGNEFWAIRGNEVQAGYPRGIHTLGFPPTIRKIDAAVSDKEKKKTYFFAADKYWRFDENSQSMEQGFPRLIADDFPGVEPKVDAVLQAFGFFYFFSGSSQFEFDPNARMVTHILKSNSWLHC
measured.quantity: IC50 (µM)

# compound, tgt, measured.quantity, value.reported
rows = [
    ("CCOC(=O)c1cc2cc(-c3cc(C(=O)NCc4ccc(C(=O)O)cc4)nn3C)ccc2[nH]1 [BI 4394]", "Stromelysin-2 (Homo sapiens, UniProt P09238)", "IC50", 16),
]

====

biological target: Matrilysin (Homo sapiens, UniProt P09237); assay: Inhibition of human recombinant MMP7 after 30 mins by fluorimetry
Sequence (P09237 whole entry): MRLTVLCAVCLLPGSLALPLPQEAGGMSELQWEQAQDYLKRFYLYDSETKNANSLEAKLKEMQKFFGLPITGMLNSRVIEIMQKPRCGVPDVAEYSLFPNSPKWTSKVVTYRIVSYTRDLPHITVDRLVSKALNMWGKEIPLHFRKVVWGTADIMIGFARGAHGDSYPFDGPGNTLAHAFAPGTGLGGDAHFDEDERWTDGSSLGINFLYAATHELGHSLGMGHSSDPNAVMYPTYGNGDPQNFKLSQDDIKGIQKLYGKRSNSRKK

# molecule, IC50
measured = [
    ("CCOC(=O)c1cc2cc(-c3cc(C(=O)NCc4ccc(C(=O)O)cc4)nn3C)ccc2[nH]1 [BI 4394]", "> 22 µM"),
]

====

experiment: Clearance in Sprague-Dawley rat at 1 mg/kg, iv and 10 mg/kg, po; type: ADME, organism-based; settings: in vivo

# compound.string, quantity.unit, clearance
rows = [
    ("CCOC(=O)c1cc2cc(-c3cc(C(=O)NCc4ccc(C(=O)O)cc4)nn3C)ccc2[nH]1", "mL/min/kg", 34),
]
